// provenance: patent US10759740B2

Test system: Salmonella enterica serovar typhimurium
assay remarks: Broth microdilution assay (MIC)
Type: cell-based
reported conditions: BHI broth, 37° C., 24 h, no visible growth
readout type: MIC S. typhimurium (G−) (µg/mL)
Expressed in µg/mL, but write only the number.

INSERT INTO assay_data (compound, numeric_value) VALUES
  ('CCCCCCCCCC(=O)OC(C(=O)NCCN)C(OC(=O)CCCCCCCCC)C(=O)NCCN.Cl.Cl (centres unmarked) [8b]', 3.9),
  ('CCCCCCCCCCOC(C(=O)NCCN)C(OCCCCCCCCCC)C(=O)NCCN.Cl.Cl (centres unmarked) [5b]', 3.9);

Let's switch to this compound now.
INPUT: Please look up its MIC S. typhimurium (G−): CCCCCCCC(=O)OC(C(=O)NCCN)C(OC(=O)CCCCCCC)C(=O)NCCN.Cl.Cl (centres unmarked) [8a]
OUTPUT: 62.5

====

# MIC L. monocytogenes (G+) values compiled below
Test system: Listeria monocytogenes Scott A
assay remarks: Broth microdilution assay (MIC)
Assay type: cell-based
reported conditions: BHI broth, 37° C., 24 h, no visible growth
Respond numerically; units are µg/mL and should not be typed.

INSERT INTO assay_data (molecule, readout_type, uom, numeric_value) VALUES
  ('CCCCCCCCCC(=O)OC(C(=O)NCCN)C(OC(=O)CCCCCCCCC)C(=O)NCCN.Cl.Cl (centres unmarked)', 'MIC L. monocytogenes (G+)', 'µg/mL', 1.9),
  ('CCCCCCCC(=O)OC(C(=O)NCCN)C(OC(=O)CCCCCCC)C(=O)NCCN.Cl.Cl (centres unmarked)', 'MIC L. monocytogenes (G+)', 'µg/mL', 31.2);

INPUT: Find the recorded MIC L. monocytogenes (G+) belonging to CCCCCCCCCCOC(C(=O)NCCN)C(OCCCCCCCCCC)C(=O)NCCN.Cl.Cl (centres unmarked) and report it.
OUTPUT: 0.95

INPUT: Fill blank: measured MIC L. monocytogenes (G+) of the molecule CCCCCCCCCCCCOC(C(=O)NCCN)C(OCCCCCCCCCCCC)C(=O)NCCN.Cl.Cl (centres unmarked) is ____.
OUTPUT: 125

====

System: Escherichia coli O157:H7
assay remarks: Broth microdilution assay (MIC)
Assay type: cell-based
reported conditions: BHI broth, 37° C., 24 h, no visible growth
readout type: MIC E. coli (G−) (µg/mL)
Value expressed in µg/mL; do not type the unit.

Sample records with MIC E. coli (G−):
INSERT INTO assay_data (compound, numeric_value) VALUES
  ('CCCCCCCCCC(=O)OC(C(=O)NCCN)C(OC(=O)CCCCCCCCC)C(=O)NCCN.Cl.Cl (centres unmarked)', 3.9),
  ('CCCCCCCCCCOC(C(=O)NCCN)C(OCCCCCCCCCC)C(=O)NCCN.Cl.Cl (centres unmarked)', 3.9);

Then this compound:
INPUT: Entry under review: CCCCCCCC(=O)OC(C(=O)NCCN)C(OC(=O)CCCCCCC)C(=O)NCCN.Cl.Cl (centres unmarked) . Reported MIC E. coli (G−)?
OUTPUT: 62.5
